The entries below are paired with their reported IC50.
# ASSAYED TARGET: DNA topoisomerase II (Homo sapiens, UniProt P11388+Q02880)
# TEST PROTOCOL: Inhibitory concentration against relaxation activity of DNA topoisomerase II by detecting the conversion of supercoiled pBR322 DNA to its relaxed form
# Assay type: protein assay

{"COMPOUND STRUCTURE": "O=C(Nc1ccc(NC(=O)c2cc(O)c(O)c(O)c2)cc1)c1cc(O)c(O)c(O)c1", "IC50, nM": 150}
{"COMPOUND STRUCTURE": "O=C(Nc1cccc(NC(=O)c2cc(O)c(O)c(O)c2)c1)c1cc(O)c(O)c(O)c1", "IC50, nM": 220}
{"COMPOUND STRUCTURE": "O=C(Nc1ccccc1NC(=O)c1cc(O)c(O)c(O)c1)c1cc(O)c(O)c(O)c1", "IC50, nM": 90}
